measured_on: S100B (Homo sapiens, UniProt P04271)
Construct: made in house; host or cells: Escherichia coli BL21(DE3)
Sequence (P04271 whole entry): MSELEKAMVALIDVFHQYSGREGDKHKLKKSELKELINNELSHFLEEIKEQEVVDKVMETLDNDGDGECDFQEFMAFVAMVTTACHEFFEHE
procedure_text: Competition pull-down with native ligand RSK1 (689–735)
Type: binding
measurement_parameters: H14 library; competitor peptide 200 µM; read-out: Surface mapping KD (apparent), competition
measurement_type: pKd
// field semantics: pKd = negative decimal log of concentration (mol/L)

Reported pKd, compound CC[C@H](C)[C@@H](CC(=O)N[C@H]1CCCC[C@@H]1C(=O)N[C@H]1CCCC[C@@H]1C(=O)N[C@H](CC(=O)N[C@H]1CCCC[C@@H]1C(N)=O)Cc1ccc(O)cc1)NC(=O)[C@H]1CCCC[C@@H]1N [H14 IY] : ____
3.81

// next entry
Reported pKd, compound CC[C@H](C)[C@@H](CC(=O)N[C@H]1CCCC[C@@H]1C(=O)N[C@H]1CCCC[C@@H]1C(=O)N[C@@H](CCCNC(=N)N)CC(=O)N[C@H]1CCCC[C@@H]1C(N)=O)NC(=O)[C@H]1CCCC[C@@H]1N [H14 IR] : ____
3.76

###

Entries annotated with measured pKd
measured_on: CaM (Bos taurus)
Construct: made in house; host or cells: E. coli BL21 (DE3)
procedure_text: Pull-down assay with immobilized protein and LSM libraries
Format: binding, bovine
measurement_parameters: H14 library; 1:2 stoichiometry assumed; read-out: Surface mapping KD (apparent)
// field semantics: pKd = negative decimal log of concentration (mol/L)

Identify the measured pKd of CC(C)C[C@@H](CC(=O)N[C@H]1CCCC[C@@H]1C(=O)N[C@H]1CCCC[C@@H]1C(=O)N[C@@H](CCCNC(=N)N)CC(=O)N[C@H]1CCCC[C@@H]1C(N)=O)NC(=O)[C@H]1CCCC[C@@H]1N for CaM (Bos taurus).
4.85

Identify the measured pKd of CSCC[C@@H](CC(=O)N[C@H]1CCCC[C@@H]1C(=O)N[C@H]1CCCC[C@@H]1C(=O)N[C@@H](CCCNC(=N)N)CC(=O)N[C@H]1CCCC[C@@H]1C(N)=O)NC(=O)[C@H]1CCCC[C@@H]1N for CaM (Bos taurus).
4.72

Identify the measured pKd of CC(C)C[C@@H](CC(=O)N[C@H]1CCCC[C@@H]1C(N)=O)NC(=O)[C@H]1CCCC[C@@H]1NC(=O)[C@H]1CCCC[C@@H]1NC(=O)C[C@H](CCCCN)NC(=O)[C@H]1CCCC[C@@H]1N for CaM (Bos taurus).
4.66

Identify the measured pKd of CC[C@H](C)[C@@H](CC(=O)N[C@H]1CCCC[C@@H]1C(=O)N[C@H]1CCCC[C@@H]1C(=O)N[C@H](CC(=O)N[C@H]1CCCC[C@@H]1C(N)=O)Cc1ccccc1)NC(=O)[C@H]1CCCC[C@@H]1N for CaM (Bos taurus).
5.05

Identify the measured pKd of NC(=O)CC[C@@H](CC(=O)N[C@H]1CCCC[C@@H]1C(=O)N[C@H]1CCCC[C@@H]1C(=O)N[C@H](CC(=O)N[C@H]1CCCC[C@@H]1C(N)=O)Cc1c[nH]c2ccccc12)NC(=O)[C@H]1CCCC[C@@H]1N for CaM (Bos taurus).
4.57

Identify the measured pKd of NC(=O)[C@H]1CCCC[C@@H]1NC(=O)C[C@H](Cc1c[nH]c2ccccc12)NC(=O)[C@H]1CCCC[C@@H]1NC(=O)[C@H]1CCCC[C@@H]1NC(=O)C[C@H](Cc1ccccc1)NC(=O)[C@H]1CCCC[C@@H]1N for CaM (Bos taurus).
6.15
